Reported IC50 is given for each of the following compounds.
Target: FLT3-ITD (Homo sapiens)
Construct: FLT3-ITD; Invitrogen #PV6190
Experiment: FLT3-ITD biochemical kinase assay (AlphaScreen)

Illustrative cases are given below, each with its answer.
COMPOUND: N#Cc1cccc(C#Cc2cnc3[nH]cc(-c4ccc5ncn(C6CCCNC6)c5c4)c3c2)c1 (centres unmarked) [P-243]
IC50: 0.0001 to 1 µM
--
COMPOUND: COc1cc(-c2cnc3[nH]cc(-c4ccc5ncsc5c4)c3n2)ccc1Cl [P-161]
IC50: 1 to 10 µM
--
COMPOUND: O=S1(=O)CCCCN1c1cccc(-c2cnc3[nH]cc(-c4ccc5ncn(C6CCCNC6)c5c4)c3c2)c1 (centres unmarked) [P-224]
IC50: 0.0001 to 1 µM

Name the recorded IC50 of Cn1cnc2ccc(-c3c[nH]c4ncc(C5=CCN(C(=O)C6CC6)C5)cc34)cc21 [P-130] , assay system FLT3-ITD (Homo sapiens).
0.0001 to 1 µM

Name the recorded IC50 of COc1cc(-c2cnc3[nH]cc(-c4ccc5ncn(C(C)(C)C)c5c4)c3c2)ccc1C#N [P-372] , assay system FLT3-ITD (Homo sapiens).
0.0001 to 1 µM

Name the recorded IC50 of COc1cccc(-c2cnc3[nH]cc(-c4ccc5ncn(C)c5c4)c3n2)c1 [P-145] , assay system FLT3-ITD (Homo sapiens).
0.0001 to 1 µM

Name the recorded IC50 of CCCS(=O)(=O)Nc1cccc(-c2cnc3[nH]cc(-c4ccc5ncn(C(C)(C)C)c5c4)c3c2)c1 [P-216] , assay system FLT3-ITD (Homo sapiens).
0.0001 to 1 µM
